Recorded values, source PubChem BioAssay (Tox21).

# Measured on: Androgen receptor (Homo sapiens) (UniProt P10275)
# Sequence (P10275 whole entry, looked up): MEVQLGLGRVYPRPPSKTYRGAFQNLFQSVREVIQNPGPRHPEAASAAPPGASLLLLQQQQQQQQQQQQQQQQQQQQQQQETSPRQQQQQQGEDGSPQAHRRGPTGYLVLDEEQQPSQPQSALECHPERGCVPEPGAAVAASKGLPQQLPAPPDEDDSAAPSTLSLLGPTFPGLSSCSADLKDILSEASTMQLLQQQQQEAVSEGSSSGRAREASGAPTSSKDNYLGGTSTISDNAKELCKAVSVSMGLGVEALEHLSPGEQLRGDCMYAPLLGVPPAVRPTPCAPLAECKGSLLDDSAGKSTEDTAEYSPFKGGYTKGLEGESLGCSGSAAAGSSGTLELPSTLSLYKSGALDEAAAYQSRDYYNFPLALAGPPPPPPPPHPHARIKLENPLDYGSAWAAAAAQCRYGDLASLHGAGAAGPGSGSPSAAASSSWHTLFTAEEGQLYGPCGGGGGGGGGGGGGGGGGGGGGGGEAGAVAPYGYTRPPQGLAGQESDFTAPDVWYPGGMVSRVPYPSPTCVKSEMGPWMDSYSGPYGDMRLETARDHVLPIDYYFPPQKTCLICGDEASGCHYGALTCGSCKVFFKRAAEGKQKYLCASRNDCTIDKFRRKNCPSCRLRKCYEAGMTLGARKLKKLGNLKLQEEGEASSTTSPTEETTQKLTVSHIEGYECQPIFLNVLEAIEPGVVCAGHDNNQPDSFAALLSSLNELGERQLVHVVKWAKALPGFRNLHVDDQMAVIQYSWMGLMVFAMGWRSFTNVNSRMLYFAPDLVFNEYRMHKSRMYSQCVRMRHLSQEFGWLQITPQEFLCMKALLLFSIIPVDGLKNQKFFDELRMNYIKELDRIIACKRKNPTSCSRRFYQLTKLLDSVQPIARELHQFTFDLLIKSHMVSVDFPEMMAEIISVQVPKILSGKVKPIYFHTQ
# Test: qHTS assay to identify small molecule antagonists of the androgen receptor (AR) signaling pathway (AID 743035)
# Protocol conditions: HEK293 AR-UAS-bla, R1881-stimulated, beta-lactamase FRET, 16 h; series mostly up to 58.5 µM
# Source text: National Center for Advancing Translational Sciences [NCATS] NIH Chemical Genomics Center [NCGC] U.S. Environmental Protection Agency [EPA] National Institutes of Environmental Health Sciences [NIEHS] National Toxicology Program [NTP] U.S. Food and Drug Administration [FDA] Androgen receptor (AR), a nuclear hormone receptor, plays a critical role in AR-dependent prostate cancer and other androgen related diseases. […]
Records with an inconclusive call do not appear. The source made the active and inactive calls. The call rests on the fitted dose curve; in most records, active means well fitted inhibition curve with a large enough effect in the signal ratio in the repeat runs (not every such curve was filed as active); inconclusive means weak or mixed curves, or effect the other way; inactive means no such curve, though single readings can be large or run the other way; the % refers to the signal ratio.
Classes used: active, inactive

| Molecule | Group label |
| --- | --- |
| c1cc2c(c(N3CCNCC3)c1)OCCO2 | inactive |
| c1cc[c]([Hg][c]2ccccc2)cc1 | active |
| Cc1nc(N)nc(N)n1 | inactive |
| C#C[C@]1(O)C=C[C@H]2[C@@H]3CCC4=CC(=O)CC[C@@H]4[C@H]3CC[C@@]21CC | active |
| CCN(CC)C(C)C(=O)c1ccccc1 (stereo unspecified) | inactive |
| O=CNC(N1CCN(C(NC=O)C(Cl)(Cl)Cl)CC1)C(Cl)(Cl)Cl (stereo unspecified) | active |

* * *

# Test: Caspase-3/7 induction in CHO-K1 cells by small molecules, qHTS cell viability counter screen (AID 1346979); further: nearly all actives have a fitted effect of over 35% in size
# Protocol conditions: CellTiter-Fluor fluorescence, 17 h; series mostly up to 92.4 µM
Records with an inconclusive call do not appear. Active and inactive are the calls of the source. The call rests on the fitted dose curve; in most records, active means well fitted cell-killing curve with a large enough effect in the repeat runs; inconclusive means weak or mixed curves, or effect the other way; inactive means no such curve, though single readings can be large or run the other way.
Classes used: active, inactive

| Compound | Group label |
| --- | --- |
| CCCSP(=S)(OCC)Oc1ccc(Cl)cc1Cl (stereo unspecified) | inactive |
| CC(=O)Nc1cc([As](=O)(O)O)ccc1O | inactive |
| CCCCP(CCCC)CCCC | inactive |
| CNC(=O)Oc1c(C(C)(C)C)cc(C)cc1C(C)(C)C | inactive |
| [As]#[In] | inactive |
| O=[N+]([O-])c1cccc2c([N+](=O)[O-])cccc12 | inactive |
| CCSC(=O)N(CC)C1CCCCC1 | inactive |
| C[N+](=O)[O-] | inactive |
| CC1(C)COP(Oc2ccccc2)OC1 | inactive |
| CCC(C)(C)c1cc(-n2nc3ccccc3n2)c(O)c(C(C)(C)CC)c1 | inactive |
| CCN(Cc1ccc(Cl)nc1)/C(=C/[N+](=O)[O-])NC | inactive |
| c1cc[c]([Hg][c]2ccccc2)cc1 | active |
| CCOC(=O)C(c1c(O)c2ccccc2oc1=O)c1c(O)c2ccccc2oc1=O | inactive |
| Cc1ncc(CNC(=O)N(CCCl)N=O)c(N)n1 | inactive |
| c1cc2c(c(N3CCNCC3)c1)OCCO2 | inactive |
| CC(C)NCC(O)c1ccc(N)c(C#N)c1 (stereo unspecified) | inactive |
| CCOP(=O)(N=C1SCCS1)OCC | inactive |
| C1CCC(C2CCCCC2)CC1 | inactive |
| CCS(=O)(=O)C(C)(C)S(=O)(=O)CC | inactive |
| O=C(O)c1ccc2[nH]cc(CCCCN3CC=C(c4ccccc4)CC3)c2c1 | inactive |
| C[N+](C)=CCl | inactive |
| COc1cc(C[C@@H](C)N)c(OC)cc1C | inactive |
| O=[N+]([O-])c1cccc(O)c1 | inactive |
| CC(C)CP(=S)(S)CC(C)C | active |
| CSc1nc(N=[N+]=[N-])nc(NC(C)C)n1 | inactive |
| CC1(C)C(=O)NC(=O)NC1=O | inactive |
| CC(COc1ccc(Oc2ccccc2)cc1)Oc1ccccn1 (stereo unspecified) | inactive |
| O=C(CCCN1CCC(n2c(=O)[nH]c3ccccc32)CC1)c1ccc(F)cc1 | inactive |
| CC(=O)CC(c1ccc(Cl)cc1)c1c(O)c2ccccc2oc1=O (stereo unspecified) | inactive |
| COc1ccc(C(=O)N2CCCC2=O)cc1 | inactive |
| CCC(C)n1c(=O)[nH]c(C)c(Br)c1=O (stereo unspecified) | inactive |
| ClCCOCOCCCl | inactive |
| COc1cc(OC)nc(Oc2cccc(Oc3nc(OC)cc(OC)n3)c2C(=O)O)n1 | inactive |
| O=C(Oc1ccc(Br)cc1)N1CCN2CCC1CC2 | inactive |
| N#CCBr | inactive |
| CN1CCC(O)(c2ccc(F)cc2)C(C(=O)c2ccc(F)cc2)C1 (stereo unspecified) | inactive |
| Cc1nnc2n1-c1sc(CCC(=O)N3CCOCC3)cc1C(c1ccccc1Cl)=NC2 | inactive |
| CCCCOC(=O)c1ccccc1N | inactive |
| [O]=[Cd] | inactive |
| C=CCC1=C(C)[C@@H](OC(=O)[C@@H]2[C@@H](C=C(C)C)C2(C)C)CC1=O | active |
| COP(=S)(OC)Oc1c(Cl)cc(C)cc1Cl | inactive |
| OC(c1ccc(F)cc1)(c1cncnc1)c1ccccc1Cl (stereo unspecified) | inactive |
| CC(C)CC(N(C)C)C1(c2ccc(Cl)cc2)CCC1 (stereo unspecified) | inactive |
| NC(=O)c1cc([N+](=O)[O-])cc([N+](=O)[O-])c1 | inactive |
| CC(Cl)(Cl)[N+](=O)[O-] | inactive |
| NC(=S)C(N)=S | inactive |
| CCOC(=O)CP(=O)(OCC)OCC | inactive |
| O=S(=O)(O)C(F)(F)C(F)(F)C(F)(F)C(F)(F)C(F)(F)C(F)(F)F | inactive |
| ClC(Cl)Br | inactive |
| CN/C(=N\[N+](=O)[O-])NCC1CCOC1 (stereo unspecified) | inactive |
| CCCCN(CCCCO)N=O | inactive |
| Nc1n[nH]c(N)n1 | inactive |
| [Cl][Sn]([Cl])([Cl])[Cl] | inactive |
| COC(=O)c1ccccc1S(=O)(=O)NC(=O)N(C)c1nc(C)nc(OC)n1 | inactive |
| O=NN1CCN(N=O)CC1 | inactive |
| Cc1ccccc1CO[C@@H]1C[C@@]2(C(C)C)CC[C@]1(C)O2 | inactive |

* * *

# Measured on: Estrogen receptor (Homo sapiens) (UniProt P03372)
# Sequence (P03372 whole entry, looked up): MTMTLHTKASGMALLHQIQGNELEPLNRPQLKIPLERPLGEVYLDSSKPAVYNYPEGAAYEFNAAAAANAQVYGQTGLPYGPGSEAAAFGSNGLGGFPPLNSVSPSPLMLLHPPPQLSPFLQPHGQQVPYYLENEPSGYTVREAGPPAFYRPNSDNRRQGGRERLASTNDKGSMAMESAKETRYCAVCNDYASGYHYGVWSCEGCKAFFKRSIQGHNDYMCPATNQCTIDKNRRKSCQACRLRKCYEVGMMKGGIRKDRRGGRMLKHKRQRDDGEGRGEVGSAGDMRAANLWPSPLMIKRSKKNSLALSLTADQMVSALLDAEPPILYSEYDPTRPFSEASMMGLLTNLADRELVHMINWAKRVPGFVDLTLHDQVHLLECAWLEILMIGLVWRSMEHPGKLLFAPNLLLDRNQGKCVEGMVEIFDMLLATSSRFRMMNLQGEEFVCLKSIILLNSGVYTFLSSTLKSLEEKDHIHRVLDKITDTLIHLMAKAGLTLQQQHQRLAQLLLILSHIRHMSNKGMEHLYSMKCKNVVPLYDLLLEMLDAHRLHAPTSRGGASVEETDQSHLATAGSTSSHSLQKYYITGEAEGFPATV
# Test: qHTS assay to identify small molecule agonists of the estrogen receptor alpha (ER-alpha) signaling pathway in the presence of an antagonist (AID 1259383); further: nearly all actives have a fitted effect of over 15% in size
# Protocol conditions: VM7Luc4E2 cells, ERE-luciferase, +ICI-182,780, 22 h; series mostly up to 92.4 µM
The source made the active and inactive calls. Calls come from the whole dose curve.
Classes used: active, inactive

| Molecule | Group label |
| --- | --- |
| N#CCBr | inactive |
| c1cc2c(c(N3CCNCC3)c1)OCCO2 | inactive |
| C[C@H]1CCC[C@H](O)CCCCCc2cc(O)cc(O)c2C(=O)O1 | active |
| Cc1nc(N)nc(N)n1 | inactive |
| Cc1cccc(C#N)c1 | inactive |
| C[C@@H]1CN(C2CCC(C#N)(c3ccc(F)cc3)CC2)CC[C@]1(C(=O)O)c1ccccc1 (stereo not given in full) | inactive |
| C=CC1CC=CCC1 (stereo not given) | inactive |
| CCCCCCI | inactive |
| COC(=O)C(c1ccccc1)C1CCCCN1 (stereo not given) | inactive |
| N#Cc1ccncc1 | inactive |
| CCCCc1c(C)nc(NCC)[nH]c1=O | inactive |
| [Cl][Sn]([Cl])([Cl])[Cl] | inactive |
| NC(=O)O | inactive |
| C=CCC1=C(C)[C@@H](OC(=O)[C@@H]2[C@@H](C=C(C)C)C2(C)C)CC1=O | inactive |
| C[N+](C)=CCl | inactive |

* * *

# Measured on: Cytochrome P450 2C19 (Homo sapiens) (UniProt P33261)
# Sequence (P33261 whole entry, looked up): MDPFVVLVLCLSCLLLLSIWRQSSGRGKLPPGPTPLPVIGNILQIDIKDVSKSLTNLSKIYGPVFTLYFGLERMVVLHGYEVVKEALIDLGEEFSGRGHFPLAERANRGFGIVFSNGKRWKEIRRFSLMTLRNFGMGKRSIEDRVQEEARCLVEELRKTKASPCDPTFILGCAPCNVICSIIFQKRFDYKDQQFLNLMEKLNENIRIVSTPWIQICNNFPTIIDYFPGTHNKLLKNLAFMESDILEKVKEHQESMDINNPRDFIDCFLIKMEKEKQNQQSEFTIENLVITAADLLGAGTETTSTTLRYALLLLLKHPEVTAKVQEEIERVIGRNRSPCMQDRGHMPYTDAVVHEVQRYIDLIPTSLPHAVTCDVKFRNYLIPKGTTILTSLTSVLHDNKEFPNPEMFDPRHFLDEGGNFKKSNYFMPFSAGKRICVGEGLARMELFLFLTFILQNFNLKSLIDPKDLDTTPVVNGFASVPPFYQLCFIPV
# Test: Cytochrome P450 Family 2 Subfamily C Member 19 (CYP2C19) small molecule antagonists: luciferase reporter qHTS assay (AID 1671197); further: nearly all actives have a fitted effect of over 65% in size; further: potency means the concentration at half of the fitted maximal effect
# Protocol conditions: P450-Glo CYP2C19 enzyme, luciferin luminescence, 1 h; series mostly up to 115 µM
Inconclusive results are not listed. Activity calls are given as the source filed them. Calls come from the whole dose curve; as a rule, active = well fitted inhibition curve with a large enough effect in the repeat runs; inconclusive = weak or mixed curves; inactive = no such curve, though single readings can be large or run the other way.

| Compound | Measured on | Potency |
| --- | --- | --- |
| CCCCc1c(C)nc(NCC)[nH]c1=O | Cytochrome P450 2C19 (Homo sapiens) (UniProt P33261) | 79.6 µM (active) |
| CCCSP(=S)(OCC)Oc1ccc(Cl)cc1Cl (stereo not drawn) | Cytochrome P450 2C19 (Homo sapiens) (UniProt P33261) | 2.24 µM (active) |
| c1coc(-c2nc3ccccc3[nH]2)c1 | Cytochrome P450 2C19 (Homo sapiens) (UniProt P33261) | 28.3 µM (active) |
| C=CCC1=C(C)[C@@H](OC(=O)[C@@H]2[C@@H](C=C(C)C)C2(C)C)CC1=O | Cytochrome P450 2C19 (Homo sapiens) (UniProt P33261) | 6.33 µM (active) |
| CCN(CC)c1nc(C)cc(OP(=S)(OC)OC)n1 | Cytochrome P450 2C19 (Homo sapiens) (UniProt P33261) | 0.178 µM (active) |
| OCCBr | Cytochrome P450 2C19 (Homo sapiens) (UniProt P33261) | inactive |
| N#CCCC#N | Cytochrome P450 2C19 (Homo sapiens) (UniProt P33261) | inactive |
| O=C(Nc1ccccc1)c1ccccc1I | Cytochrome P450 2C19 (Homo sapiens) (UniProt P33261) | 22.4 µM (active) |
| CCNc1nc(NC(C)C)nc(OC)n1 | Cytochrome P450 2C19 (Homo sapiens) (UniProt P33261) | 25.2 µM (active) |
| O=C(N[C@H]1CN2CCC1CC2)c1cc2ccoc2cn1 | Cytochrome P450 2C19 (Homo sapiens) (UniProt P33261) | inactive |
| CC1CN1P(=O)(N1CC1C)N1CC1C (stereo not drawn) | Cytochrome P450 2C19 (Homo sapiens) (UniProt P33261) | inactive |
| C[C@]12CC[C@H]3[C@@H](CCC4=CC(=O)CC[C@@]43C)[C@@H]1CC[C@@H]2C(=O)O | Cytochrome P450 2C19 (Homo sapiens) (UniProt P33261) | inactive |
| c1cc[c]([Hg][c]2ccccc2)cc1 | Cytochrome P450 2C19 (Homo sapiens) (UniProt P33261) | 22.4 µM (active) |
